Sourced from patent US10772836B2

Protocol Details: Oral absorbability of […], blood drug concentration after oral administration (Test Example 6)
Type: in vivo
Condition Context: rat; male SD rats, single oral dose 10 mg/kg in terms of […], plasma
Measurement Label: Cmax (ng/mL)
Write it as a number; the unit ng/mL goes unstated.

# get_value(readout='Cmax', item= `COc1ccc(/C=C/C(=O)Nc2ccccc2C(=O)O)cc1OC` )
100

----------
Protocol Details: Oral absorbability of […], blood drug concentration after oral administration (Test Example 6)
Format: in vivo
Condition Context: rat, plasma; male SD rats, single oral dose 10 mg/kg in terms of […]
Measurement Label: bioavailability (%)
Write it as a number; the unit % goes unstated.

# get_value(readout='bioavailability', item= COc1ccc(/C=C/C(=O)Nc2ccccc2C(=O)O)cc1OC [Tranilast] )
1.2

----------
Protocol Details: Oral absorbability of […], blood drug concentration after oral administration (Test Example 6)
Format: in vivo
Condition Context: rat; male SD rats, single oral dose 10 mg/kg in terms of […], plasma
Measurement Label: half-life

# get_value(readout='half-life', item= COc1ccc(/C=C/C(=O)Nc2ccccc2C(=O)O)cc1OC [Tranilast] )
2.9 h

----------
Protocol Details: Oral absorbability of […], blood drug concentration after oral administration (Test Example 6)
Format: in vivo
Condition Context: rat; male SD rats, single oral dose 10 mg/kg in terms of […], plasma
Measurement Label: Tmax (h)
Write it as a number; the unit h goes unstated.

# get_value(readout='Tmax', item= `COc1ccc(/C=C/C(=O)Nc2ccccc2C(=O)O)cc1OC` )
1.8

----------
Protocol Details: Oral absorbability of […], blood drug concentration after oral administration (Test Example 6)
Assay type: in vivo
Condition Context: rat; male SD rats, single oral dose 10 mg/kg in terms of […], plasma
Measurement Label: AUC(0-inf) (ng·h/mL)
Write it as a number; the unit ng·h/mL goes unstated.

# get_value(readout='AUC(0-inf)', item= `COc1ccc(/C=C/C(=O)Nc2ccccc2C(=O)O)cc1OC` )
800
